Measured IC50 accompanies every entry in the list below.
test: Inhibition of Escherichia coli FtsZ polymerization expressed in Escherichia coli BL21 assessed as reduction in light scattering intensity in presence of GTP by fluorescence spectrometric analysis
Numeric answer only, unit µM assumed.

- cpd.smiles: "O=C(O)/C=C/c1ccccc1"
  numeric.value: 239
- cpd.smiles: "COc1cc2ccc(=O)oc2cc1O"
  numeric.value: 41

Consider now this further compound.
Quick one: IC50 of O=C(O)/C=C/c1ccc(O)cc1 ?
190

###

assay: Inhibition of Escherichia coli FtsZ polymerization expressed in Escherichia coli BL21 assessed as reduction in light scattering intensity in presence of GTP by fluorescence spectrometric analysis
Each entry below lists one item and its recorded pIC50 value.
The quantity pIC50 is defined as the negative base-10 logarithm of the molar concentration.

Solved entries (count: 3):
- compound: "O=C(/C=C/c1ccc(O)c(O)c1)O[C@@H]1C[C@](O)(C(=O)O)C[C@@H](O)[C@H]1O [CHLOROGENIC ACID]"
  outcome.measure: "pIC50"
  numeric.value: 4.16
- compound: "COc1cc(OC)c(OC)cc1/C=C/C(=O)O"
  outcome.measure: "pIC50"
  numeric.value: 3.83
- compound: "O=c1ccc2ccc(O)c(O)c2o1 [DAPHNETIN]"
  outcome.measure: "pIC50"
  numeric.value: 4.14

Look up pIC50: O=C(O)/C=C/c1ccc(O)c(O)c1 [CAFFEIC ACID]
3.97

###

Target: Cell division protein FtsZ (Escherichia coli K-12, UniProt P0A9A6)
Sequence (P0A9A6 whole entry): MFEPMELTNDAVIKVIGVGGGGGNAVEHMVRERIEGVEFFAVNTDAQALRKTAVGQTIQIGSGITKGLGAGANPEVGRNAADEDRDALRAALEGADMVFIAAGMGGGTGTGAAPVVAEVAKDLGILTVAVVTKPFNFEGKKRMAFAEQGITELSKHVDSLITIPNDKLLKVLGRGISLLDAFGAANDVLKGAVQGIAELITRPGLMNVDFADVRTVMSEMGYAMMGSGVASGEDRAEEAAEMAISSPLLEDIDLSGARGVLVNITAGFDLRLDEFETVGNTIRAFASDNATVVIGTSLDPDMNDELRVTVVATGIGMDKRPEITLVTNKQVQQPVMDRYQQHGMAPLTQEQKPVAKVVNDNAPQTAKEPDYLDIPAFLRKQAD
Test: Inhibition of recombinant Escherichia coli K12 FtsZ GTPase activity by malachite green sodium molybdate assay
outcome.measure: IC50 (µM)
Numbers only; they are read as µM.

Can you look up the measured IC50 of COc1ccc2cc3[n+](cc2c1OC)CCc1cc2c(cc1-3)OCO2.[Cl-] [BERBERINE CHLORIDE] for me?
16

###

test system: Mycobacterium tuberculosis; experiment: Antibacterial activity against Mycobacterium tuberculosis TN587 clinical isolates measured every 24 hrs for 7 days by MABA assay; assay type: functional
outcome.measure: MIC99 (µg/mL)
A number alone suffices; assume µg/mL.

- cpd.smiles: "CN(C)c1cc2[nH]c(C3CCCCC3)nc2cc1NC(=O)c1ccc(C(F)(F)F)cc1F"
  unit.abbrev: "µg/mL"
  MIC99: 0.24

Give recorded MIC99 with Mycobacterium tuberculosis for the following compound: CN(C)c1cc2[nH]c(C3CCCCC3)nc2cc1NC(=O)c1ccc(OC(F)(F)F)cc1
0.16

Then this compound: CN(C)c1cc2[nH]c(C3CCCCC3)nc2cc1NC(=O)c1ccc(OC(F)(F)F)cc1F
0.31

Further, for CCCCOC(=O)Nc1cc2nc(C3CCCCC3)[nH]c2cc1N1CCCC1 ?
0.16

Now this one: CN(C)c1cc2[nH]c(C3CCCCC3)nc2cc1NC(=O)c1ccc(OC(F)(F)F)c(F)c1F
0.31

Please give the result for CCCCOC(=O)Nc1cc2nc(C3CCCCC3)[nH]c2cc1N(C)C too.
0.13

What do you get for CCCCOC(=O)Nc1cc2nc(C3CCCCC3)[nH]c2cc1N(CC)CC ?
1.25

Same question, CCc1ccc(C(=O)Nc2cc3nc(C4CCCCC4)[nH]c3cc2N(C)C)cc1 this time
0.16

###

experiment: Inhibition of Escherichia coli FtsZ GTPase activity expressed in Escherichia coli BL21 preincubated for 5 mins followed by GTP addition after 15 mins by malachite green based spectrophotometric analysis
Recorded IC50 by entry
Give just the numeric value; µM need not be written.

- cpd.smiles: "COc1cc2ccc(=O)oc2cc1O"
  IC50, µM: 23

Form field: reported IC50 of O=c1ccc2ccc(O)c(O)c2o1
57

###

target: Cell division protein FtsZ (Escherichia coli K-12, UniProt P0A9A6); test: Inhibition of recombinant Escherichia coli K12 FtsZ assembly by light-scattering assay
outcome.measure: pIC50
Please express pIC50 as -log10 of the molar concentration.

Any idea what its pIC50 is? The molecule is COc1ccc2cc3[n+](cc2c1OC)CCc1cc2c(cc1-3)OCO2.[Cl-] [BERBERINE CHLORIDE]
5.00

###

List of half-life values.
experiment: Half life in iv dosed BALB/c mouse administered 1 hr after ABT addition by LC-MS/MS analysis; format: ADME, organism-based; settings: in vivo
Answer format reminder: number followed by unit.

- cpd.smiles: "NC(=O)c1c(F)ccc(OCc2nc3cc(C(F)(F)F)cnc3s2)c1F"
  result: "3.65 h"

The record that follows has no half-life shown yet.
Look up half-life for this compound: NC(=O)c1c(F)ccc(OCc2nc3cc(Cl)cnc3s2)c1F
0.56 h

###

tested on: Mycobacterium tuberculosis; assay: Antibacterial activity against Mycobacterium tuberculosis NHN382 clinical isolates measured every 24 hrs for 7 days by MABA assay; type: functional
Catalogue of MIC99 readings, one per entry.
Enter your answer as a number in µg/mL; do not include the unit.

The cases that follow already have their MIC99 on record.
- cpd.smiles: "CCc1ccc(C(=O)Nc2cc3nc(C4CCCCC4)[nH]c3cc2N(C)C)cc1"
  outcome.measure: "MIC99"
  numeric.value: 0.16
- cpd.smiles: "CCCCOC(=O)Nc1cc2nc(C3CCCCC3)[nH]c2cc1N(CC)CC"
  outcome.measure: "MIC99"
  numeric.value: 1.25
- cpd.smiles: "CCCCOC(=O)Nc1cc2nc(C3CCCCC3)[nH]c2cc1N(C)C"
  outcome.measure: "MIC99"
  numeric.value: 0.06
- cpd.smiles: "CN(C)c1cc2[nH]c(C3CCCCC3)nc2cc1NC(=O)c1ccc(OC(F)(F)F)cc1"
  outcome.measure: "MIC99"
  numeric.value: 0.16
- cpd.smiles: "CCCCOC(=O)Nc1cc2nc(C3CCCCC3)[nH]c2cc1N1CCCC1"
  outcome.measure: "MIC99"
  numeric.value: 0.31
- cpd.smiles: "CN(C)c1cc2[nH]c(C3CCCCC3)nc2cc1NC(=O)c1ccc(C(F)(F)F)cc1F"
  outcome.measure: "MIC99"
  numeric.value: 0.16
- cpd.smiles: "CN(C)c1cc2[nH]c(C3CCCCC3)nc2cc1NC(=O)c1ccc(OC(F)(F)F)cc1F"
  outcome.measure: "MIC99"
  numeric.value: 0.31

Now examine the next entry.
Which MIC99 reading was recorded for the molecule CN(C)c1cc2[nH]c(C3CCCCC3)nc2cc1NC(=O)c1ccc(OC(F)(F)F)c(F)c1F ?
0.37
